biological target: Bile acid receptor (Homo sapiens); experiment: ATG_IR1_CIS: Attagene CIS-FACTORIAL HepG2 Assay for human Nuclear Receptor Subfamily 1 Group H Member 4 (NR1H4), IR1 submotif (AID 2282946); conditions: IR1 reporter transcription, actives raise or lower the signal
Active and inactive are the calls of the source. The calls were made as follows: active = hit-call score of the fitted dose curve at least 0.9, where 1 is the maximum; inactive = score below 0.9.
# output must be one of active, inactive

>>> assignedlabel("O=C(Cl)c1ccc(Cl)cc1")
"inactive"
>>> assignedlabel("CCC(=O)C(CC(C)N(C)C)(c1ccccc1)c1ccccc1 (centres undefined)")
"inactive"
>>> assignedlabel("CC(C)(OO)c1ccccc1")
"inactive"
>>> assignedlabel("O=C1CCCN1")
"inactive"
>>> assignedlabel("c1cc[c]([Hg][c]2ccccc2)cc1")
"inactive"
>>> assignedlabel("CC(C)(C)c1cc(O)ccc1O")
"inactive"

Recorded test outcome, item COS(=O)(=O)c1ccc(C)cc1
inactive

Please let me know the test result on file for C[C@H]1O[C@@H](O[C@H]2[C@@H](O)C[C@H](O[C@H]3[C@@H](O)C[C@H](O[C@H]4CC[C@@]5(C)[C@H](CC[C@@H]6[C@@H]5CC[C@]5(C)[C@@H](C7=CC(=O)OC7)CC[C@]65O)C4)O[C@@H]3C)O[C@@H]2C)C[C@H](O)[C@@H]1O .
inactive

Would you mind telling me which call this test gave N#CCc1ccc(Cl)cc1 ?
inactive

Test call for this compound, please: COC[C@H](C)N(C(=O)CCl)c1c(C)csc1C
inactive

* * *

biological target: Cellular tumor antigen p53 (Homo sapiens); experiment: TOX21_p53_BLA_p5_ratio: Tox21 HCT-116 p53 Agonism Beta-lactamase Assay, Ratio, Phase 5 (AID 2283599)
Records with an inconclusive call do not appear. Activity calls are given as the source filed them. Rule for the calls: active = hit-call score of the fitted dose curve at least 0.9, where 1 is the maximum; inconclusive = response in the unintended direction; inactive = score below 0.9.
recordedEndpoint: AC50

Below are worked cases with known answers.
>>> experimentalvalue("CC(C)(OO)c1ccccc1")
"inactive"
>>> experimentalvalue("CCCCOCCOC(C)=O")
"inactive"
>>> experimentalvalue("Nc1cccc2ccccc12")
"inactive"
>>> experimentalvalue("OCC(O)CCl (configuration not stated)")
"inactive"
>>> experimentalvalue("Cn1sc(Cl)cc1=O")
"inactive"
>>> experimentalvalue("CC(=O)C(Cl)C(=O)N(C)C (configuration not stated)")
"inactive"

Quick batch: AC50 for everything below.
1. O=C(CCl)CCl
2. ClCc1ccccn1
3. O=[N+]([O-])c1c(Cl)c(Cl)cc(Cl)c1Cl
4. O=C/C=C/c1ccccc1
5. C=C(C)C(=O)[O][Sn]([CH2]CCC)([CH2]CCC)[CH2]CCC
6. C=CC(=O)OCCCCCC(C)C

inactive
inactive
inactive
inactive
35.9 µM (active)
inactive

* * *

test: BSK_3C_TissueFactor: BioMAP Diversity Plus: 3C Assay for Tissue Factor Biomarker Activity (AID 2282997); conditions: BioMAP 3C HUVEC, tissue factor biomarker readout; actives raise or lower the signal
Calls of active or inactive are those of the source. Rule for the calls: active = hit-call score of the fitted dose curve at least 0.9, where 1 is the maximum; inactive = score below 0.9.
recordedEndpoint: AC50

// solved cases for AC50 follow
>>> experimentalvalue("COC[C@H](C)N(C(=O)CCl)c1c(C)csc1C")
"inactive"
>>> experimentalvalue("CCC(C)(C)c1ccc(O)c(C(C)(C)CC)c1")
"12 µM (active)"
>>> experimentalvalue("Nc1ncc([N+](=O)[O-])s1")
"12.2 µM (active)"
>>> experimentalvalue("COP(=S)(OC)Oc1c(Cl)cc(C)cc1Cl")
"inactive"

Parameter requested: AC50. Apply to each item below.
1. O=C(Nc1ccc2[nH]ccc2c1)c1cc2cc(F)ccc2n1Cc1cccc(F)c1
2. Oc1cccc2cccnc12
3. C[C@]12CCC(=O)C[C@@H]1CC[C@@H]1[C@@H]2CC[C@]2(C)[C@@H](O)CC[C@@H]12
4. COC(=O)Cc1ccccc1
5. NC(=S)Nc1ccccc1
6. COP(=S)(OC)Oc1ccc(Sc2ccc(OP(=S)(OC)OC)cc2)cc1
7. CCOP(=S)(OCC)SCSP(=S)(OCC)OCC
8. OCc1ccco1

8.59 µM (active)
inactive
inactive
inactive
inactive
inactive
inactive
inactive
